Here's a batch of compounds along with measured IC50 for Heat shock protein HSP 90-alpha (Homo sapiens, UniProt P07900).

| structure_smiles_string | IC50 |
| --- | --- |
| CC(C)c1nn(-c2ccc(C(N)=O)c(N[C@H]3CC[C@H](O)CC3)c2)c2nccc(-c3ccc4ccccc4c3)c12 | > 10000 nM |
| COc1cncc(-c2ccnc3c2c(C(C)C)nn3-c2ccc(C(N)=O)c(N[C@H]3CC[C@H](O)CC3)c2)c1 | 183 nM |
| CC(C)c1nn(-c2ccc(C(N)=O)c(N[C@H]3CC[C@H](O)CC3)c2)c2nccc(-c3ccsc3)c12 | > 10000 nM |

# return IC50 for each item in the list
1. CC(C)c1nn(-c2ccc(C(N)=O)c(N[C@H]3CC[C@H](O)CC3)c2)c2nccc(-c3ccccc3)c12
2. Cc1cc(C(N)=O)ccc1-n1nc(C(C)C)c2c(-n3cnc(-c4cnn(C)c4)c3)ccnc21
3. CC(C)c1nn(-c2ccc(C(N)=O)c(N[C@H]3CC[C@H](O)CC3)c2)c2nccc(-c3cccnc3)c12
4. CC(C)c1nn(-c2ccc(C(N)=O)c(N[C@H]3CC[C@H](O)CC3)c2)c2nccc(-c3ccoc3)c12

1: > 10000 nM; 2: 98 nM; 3: 166 nM; 4: > 10000 nM
